Test: pKa of unformulated amine lipid by TNS fluorescence
Type: physicochemical
Conditions: sodium phosphate buffer; Table 2; unformulated amine lipid, TNS; read-out: Lipid pKa
READOUT_KIND: pKa

CCCCCCCCC(CCCCCCCC)OC(=O)CCCC(=O)OCC(COC(=O)CCCC(=O)OC(CCCCCCCC)CCCCCCCC)COC(=O)OCCCN(C)C; 6.8
CCCCC/C=C\C/C=C\CCCCCCCC(=O)OCC(CCCCCCCCC(=O)OC(CCCCCCCC)CCCCCCCC)COC(=O)OCCCN(CC)CC (stereo not drawn); 5.87
CCCCCCCCC(CCCCCCCC)OC(=O)CCCC(=O)OCC(COC(=O)CCCC(=O)OC(CCCCCCCC)CCCCCCCC)COC(=O)OCCCN(CC)CC; 6.23
CCCCC/C=C\C/C=C\CCCCCCCC(=O)OCC(CCCCCCC(=O)OC(CCCC)CCCC)COC(=O)OCCCN(CC)CC (stereo not drawn); 6.19
CCCCC/C=C\C/C=C\CCCCCCCC(=O)OCC(CCCCC(=O)OC(CCCCCCCC)CCCCCCCC)COC(=O)OCCCN(CC)CC (stereo not drawn); 6.11
CCCCCCCCC(CCCCCCCC)OC(=O)CCCC(=O)OCC(COC(=O)CCCC(=O)OC(CCCCCCCC)CCCCCCCC)COC(=O)OCCCN(C)CC; 6.4

* * *

Assay: pKa of unformulated amine lipid by TNS fluorescence
Format: physicochemical
Conditions: sodium phosphate buffer; additional ionizable lipids (53-61); unformulated amine lipid, TNS; read-out: Lipid pKa
READOUT_KIND: pKa

CCCCC/C=C\C/C=C\CCCCCCCC(=O)OCC(COC(=O)CCC(OCCCCCCCC)OCCCCCCCC)COC(=O)NCCN(CC)CC (stereo not drawn); 6.5
CCCCC/C=C\C/C=C\CCCCCCCC(=O)OCC(COC(=O)CCCC(=O)OC(CCCCCCCC)CCCCCCCC)COC(=O)OCCCN(CC)CC (stereo not drawn); 6.1
CCCCCCCCC(CCCCCCCC)OC(=O)CCCCCCC(=O)OCC(COC(=O)CCCCCCC(=O)OC(CCCCCCCC)CCCCCCCC)COC(=O)OCCCN(CC)CC; 6.1
CCCCCCCCCOC(=O)CCCCCCCN(CCO)CCCCCCCC(=O)OC(CCCCCCCC)CCCCCCCC; 6.6
CCCCC/C=C\C/C=C\CCCCCCCC(=O)OCC(COC(=O)CCCCCC(=O)OC(CCCCCCCC)CCCCCCCC)COC(=O)OCCCN(CC)CC (stereo not drawn); 6.1
CCCCCCCCC(CCCCCCCC)OC(=O)CCCCCCC(=O)OCC(COC(=O)CCCCCCC(=O)OC(CCCCCCCC)CCCCCCCC)COC(=O)NCCCN(CC)CC; 7.4
CCCCC/C=C\C/C=C\CCCCCCCC(=O)OCC(COC(=O)CCC(OCCCCCCCC)OCCCCCCCC)COC(=O)OCCCN(CC)CC (stereo not drawn); 6.2
CCCCC/C=C\C/C=C\CCCCCCCC(=O)OCC(COC(=O)CCCCCC(=O)OC(CCCCCCCC)CCCCCCCC)COC(=O)NCCN(CC)CC (stereo not drawn); 6.8
CCCCC/C=C\C/C=C\CCCCCCCC(=O)OCC(COC(=O)CCCC(=O)OC(CCCCCCCC)CCCCCCCC)COC(=O)NCCN(CC)CC (stereo not drawn); 6.8

Data origin: patent US20260337153A1
